Origin of the recorded values: ChEMBL document CHEMBL1201862

# Test system: PC-3
# protocol-description: NCI tumour cell line growth inhibition, 48 h
The source made the active and inactive calls. Rule as the data show it: active = GI50 up to about 1.1 µM and inactive = higher.
Can you answer with just one of these options? active, inactive

[
  {
    "compound": "OCCN(C1=NCCN1)/[N+](=C\\c1ccccn1)[CH-]c1ccccn1",
    "label": "inactive"
  }
]

Inquiry: Dear colleague, could you share the recorded outcome for COC(=N)CCCl when you have a moment?
Reply text: inactive

Inquiry: Given Nc1ccc(S(=O)(=O)NCCS(=O)(=O)O)cc1 , state the outcome it received in this test.
Reply text: inactive

Inquiry: Record lookup: outcome of this test for CNC(=O)CN(C)C(=O)CCC(=O)N(C)C ?
Reply text: inactive

Inquiry: Which outcome did this test record for the compound COc1ccc(OCc2nc3cc(C(F)(F)F)ccc3nc2-c2ccccc2)cc1 ?
Reply text: inactive

Inquiry: Hi team, can someone confirm the assay call for Cc1cccc(O)c1-c1nnc(CCCCCCCCc2nnc(-c3c(C)cccc3O)n2N)n1N ?
Reply text: inactive

Inquiry: Short answer needed: outcome of this test for COc1cc(Nc2nc3ccccc3n3cccc23)cc(OC)c1OC ?
Reply text: inactive

Inquiry: For this compound, state the assay outcome: COc1ccc(C(OCC2OC(n3cc(C)c(=O)[nH]c3=O)CC2n2cc(Cn3cc(Cl)c(=O)[nH]c3=O)nn2)(c2ccccc2)c2ccccc2)cc1 (configuration not stated)
Reply text: inactive

Inquiry: // param item: CC(NC1=NCCO1)c1cccc([N+](=O)[O-])c1 (configuration not stated) ; yields the recorded call
Reply text: inactive

Inquiry: So what was the verdict on COc1ccc2c(c1)CN1C(=N2)CSC1c1cc([N+](=O)[O-])ccc1Cl (configuration not stated) in this test?
Reply text: inactive

Inquiry: What did the test return for CO[C@H]1[C@@H](O)[C@@H](C)O[C@@H](O[C@H]2CC[C@@]3(C)[C@H](CC[C@@H]4[C@@H]3CC[C@]3(C)[C@@H](C5=CC(=O)OC5)[C@@H](OC(C)=O)C[C@]43O)C2)[C@@H]1O [NERITALOSIDE] ?
Reply text: active

Inquiry: Which outcome was entered for the compound CCOC(=O)c1c(-c2ccc(Cl)cc2)c(C#N)c(=S)n(C2OC(COC(C)=O)C(OC(C)=O)C(OC(C)=O)C2OC(C)=O)c1-c1ccccc1 (configuration not stated) in this test?
Reply text: inactive

Inquiry: Recorded test call requested for Nc1ccccc1/C=C\c1ccccc1
Reply text: inactive

Inquiry: For CCN(CC)C(=S)SNc1ccc(S(N)(=O)=O)cc1 , which call appears in the assay record?
Reply text: inactive

Inquiry: Call for entry CC(C)NC(=O)OCc1c(COC(=O)NC(C)C)c(-c2cc[n+](COC(=O)C3CCCCC3)cc2)n2c1CCC2 :
Reply text: inactive

Inquiry: Tell me the recorded outcome of this test for CC(=O)OC1C(O)C(C)OC(OC2C(OC(=O)C3CCC4C(C3)OC3(CC(OC(=O)/C=C/c5ccccc5)C(C)CO3)C43CO3)OC(C)C(O)C2OC(C)=O)C1O (configuration not stated) .
Reply text: active

Inquiry: Per the records of this test, what outcome belongs to N#Cc1cc2c(cc1Cl)Sc1nccn1S2(=O)=O ?
Reply text: inactive

###

# Test system: SN12C
# protocol-description: NCI tumour cell line growth inhibition, 48 h
Calls of active or inactive are those of the source. No stated cut-off is given here; in the data, active = GI50 up to about 1.1 µM and inactive = higher.
We begin with a simple list: items and their reported GI50.

In the examples that follow, each entry is paired with its recorded GI50.
[
  {
    "compound": "COc1nc(-c2c[nH]c3ccccc23)cnc1N",
    "endpoint-result": "5.87 µM (inactive)"
  },
  {
    "compound": "CCOC(C)OC1CC(n2cc(C)c(=O)[nH]c2=O)OC1CO (centres undefined)",
    "endpoint-result": "> 100 µM (inactive)"
  },
  {
    "compound": "COc1cccc(N2C(=O)C3c4[nH]c5ccc(C)cc5c4C4CCC(C(C)(C)C)CC4C3C2=O)c1 (centres undefined)",
    "endpoint-result": "3.15 µM (inactive)"
  },
  {
    "compound": "Cc1ccc(Cc2cc(N3CCN(c4cccc(Cl)c4)CC3)nnc2C)cc1",
    "endpoint-result": "56.4 µM (inactive)"
  },
  {
    "compound": "COc1cccc2c1C(=O)OC2c1cccc2ccccc12 (centres undefined)",
    "endpoint-result": "> 100 µM (inactive)"
  }
]

Inquiry: Value lookup for GI50; key = CC1(C)NC2C(=O)c3c([nH]c4ccccc34)[C@]3(C)CCC1CC23 (some centres undefined)
Reply text: > 100 µM (inactive)

Inquiry: Using the record for Cc1[nH]c(=O)[nH]c(=O)c1C(=O)N(CCO)Cc1ccccc1 , report its GI50.
Reply text: > 100 µM (inactive)

Inquiry: Using the record for COc1ccc(N[S+]([O-])c2ccccc2OC)cc1 (centres undefined) , report its GI50.
Reply text: > 100 µM (inactive)

Inquiry: Field request: GI50 | item: CC(C)C1COC(C(C)(C)C2=N[C@@H](C(C)C)CO2)=N1 (some centres undefined)
Reply text: > 100 µM (inactive)

Inquiry: Consider the compound Cc1ccc(C2(c3ccc(C)cc3)SC(=C(C#N)C#N)c3ccccc32)cc1 and give its measured GI50.
Reply text: > 100 µM (inactive)

Inquiry: Requested read-out: GI50. Entry: COc1ccc(C(=O)Nc2ccn(CCOC(=O)c3ccc(OC)cc3)c(=O)n2)cc1
Reply text: > 100 µM (inactive)

Inquiry: Give the measured GI50 of CC(=O)C1C(=O)NC(=O)C1=O (centres undefined) .
Reply text: > 100 µM (inactive)

###

# Test system: NCI-H226
# protocol-description: NCI tumour cell line growth inhibition, 48 h
Active and inactive are the calls of the source. No stated cut-off is given here; in the data, active = GI50 up to about 1.1 µM and inactive = higher.
recorded-endpoint: GI50

[
  {
    "compound": "C1CSCCSCCSCCSCCS1",
    "endpoint-result": "> 100 µM (inactive)"
  },
  {
    "compound": "Cc1oc2c(c1C)S(=O)(=O)C(C#N)C(c1ccccc1)N2 (configuration not stated)",
    "endpoint-result": "> 100 µM (inactive)"
  },
  {
    "compound": "CC1CCc2c(sc3ncnc(N/N=C/c4ccc(Cl)cc4)c23)C1 (configuration not stated)",
    "endpoint-result": "11.7 µM (inactive)"
  }
]

Proceed to the following item.
Inquiry: What reported GI50 corresponds to C=CCN1C(=O)CS/C1=N\NC(=O)c1c(C)nc2sccn12 on NCI-H226?
Reply text: > 100 µM (inactive)

###

# Tested on: M14
# protocol-description: NCI tumour cell line growth inhibition, 48 h
Active and inactive are the calls of the source. Rule as the data show it: active = GI50 up to about 1.1 µM and inactive = higher.
Reported GI50 values for the following compounds.

Illustrative cases are given below, each with its answer.
[
  {
    "compound": "O=C1OCC2(CO1)CC1C=CC2C1 (stereo not given)",
    "system-tested": "M14",
    "GI50": "> 100 µM (inactive)"
  },
  {
    "compound": "CCN(CC)CCOC(=O)c1ccc(N)cc1.CCOC(=O)Nc1ccc(S(=O)(=O)OC)cc1.CCOC(=O)Nc1ccc(S(=O)(=O)OC)cc1.Nc1ccc(C(=O)O)c(O)c1",
    "system-tested": "M14",
    "GI50": "> 100 µM (inactive)"
  },
  {
    "compound": "COP1(=S)OCC2CCC[C@@H]2O1 (stereo not given in full)",
    "system-tested": "M14",
    "GI50": "> 100 µM (inactive)"
  },
  {
    "compound": "CCOP(=O)(OCC)C(C)(CC)NC(=O)C(C(F)(F)F)C(F)(F)F (stereo not given)",
    "system-tested": "M14",
    "GI50": "> 100 µM (inactive)"
  },
  {
    "compound": "CCOC(=O)CCC(NC(=O)c1ccc(Oc2nc3ccccc3nc2C(=O)OCC)cc1)C(=O)OCC (stereo not given)",
    "system-tested": "M14",
    "GI50": "> 100 µM (inactive)"
  }
]

Inquiry: Look at this compound and give its reported GI50. CCCC[C@H]1[C@@H](OCOc2ccccc2)COC(=O)N1[C@H](C)c1ccccc1
Reply text: 12.6 µM (inactive)

Inquiry: GI50 for O=C(O)c1nn(-c2ccccc2-c2nnc(O)nc2O)c(=O)[nH]c1=O ?
Reply text: > 100 µM (inactive)

Inquiry: For the compound shown here, CSc1nc2c(nc(N)n2C2OC(CO)C(O)C(O)C2O)c(=O)n1C (stereo not given) , give the reported GI50.
Reply text: > 100 µM (inactive)

Inquiry: I am curious: what GI50 value has been reported for COC(=O)C1Cc2cc3c(cc2C1=O)CCCC3 (stereo not given) ?
Reply text: > 100 µM (inactive)

Inquiry: Give the measured GI50 of NC1=NC(=O)C2(NN1)c1ccccc1-c1ccccc12 .
Reply text: > 10 µM (inactive)

Inquiry: What measured GI50 goes with [N-]=[N+]=C(C(=O)CN1CCCC1=O)S(=O)(=O)c1ccccc1 ?
Reply text: > 100 µM (inactive)

Inquiry: Quick one: GI50 of CCOC(=O)OC1(c2ccccc2)CCN(C)CC1 ?
Reply text: > 100 µM (inactive)
